# system_under_test: Serine protease 1 (Bos taurus)
# Sequence (P00760 whole entry): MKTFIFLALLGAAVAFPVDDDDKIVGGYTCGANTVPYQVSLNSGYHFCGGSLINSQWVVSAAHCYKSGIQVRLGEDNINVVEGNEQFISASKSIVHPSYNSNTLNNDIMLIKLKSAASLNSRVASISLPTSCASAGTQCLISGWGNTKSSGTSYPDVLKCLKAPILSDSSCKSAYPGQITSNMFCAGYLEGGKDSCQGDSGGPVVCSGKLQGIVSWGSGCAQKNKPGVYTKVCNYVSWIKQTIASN
Literature roundup of Serine protease 1 (Bos taurus) data, read-out pIC50.
pIC50 is defined as minus the log10 of a concentration measured in mol/L.

Worked set:
[[record]]
compound = "CC(C)(C)NC(=O)N1CCN(C(=O)N2C(=O)[C@H](CCCN=C(N)N)C2C(=O)O)CC1 (single isomer, unassigned)"
observation_type = "pIC50"
measured_value = 7.14

[[record]]
compound = "CN[C@H](Cc1ccccc1)C(=O)N1CCC[C@H]1C(=O)N[C@H](C=O)CCCN=C(N)N"
observation_type = "pIC50"
measured_value = 7.89

[[record]]
compound = "CC(=O)N[C@@](C)(C(=O)N1CC[C@H]1C(=O)N[C@H](C=O)CCCNC(=N)N)c1ccccc1"
observation_type = "pIC50"
measured_value = 7.96


For the next question, use this compound.
Sample `CCOC(=O)CN(NC(=O)OC(C)(C)C)C(=O)[C@@H]1CCCC[C@H]1C(=O)N[C@H](C=O)CCCN=C(N)N` — what was its pIC50?
6.60

###

Literature roundup of Serine protease 1 (Bos taurus, UniProt P00760) data, read-out IC50.
# system_under_test: Serine protease 1 (Bos taurus, UniProt P00760)
# Sequence (P00760 whole entry): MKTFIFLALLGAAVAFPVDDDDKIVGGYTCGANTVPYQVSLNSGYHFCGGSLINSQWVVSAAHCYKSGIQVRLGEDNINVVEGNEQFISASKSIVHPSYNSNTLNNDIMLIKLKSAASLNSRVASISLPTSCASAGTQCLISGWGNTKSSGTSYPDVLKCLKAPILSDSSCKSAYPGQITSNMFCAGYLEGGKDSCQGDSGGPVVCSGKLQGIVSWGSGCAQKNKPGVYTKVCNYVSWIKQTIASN

Worked set:
[[record]]
molecule = "CCOC(=O)CN(NC(=O)OC(C)(C)C)C(=O)[C@@H]1CCCC[C@H]1C(=O)N[C@@H](CCCN=C(N)N)C(=O)C(=O)NCCc1ccccc1"
system_under_test = "Serine protease 1 (Bos taurus, UniProt P00760)"
observation_type = "IC50"
measured_value = "250 nM"

[[record]]
molecule = "O=C1N(Cc2ccccc2)C(=O)N1Cc1ccccc1"
system_under_test = "Serine protease 1 (Bos taurus, UniProt P00760)"
observation_type = "IC50"
measured_value = "39 nM"

[[record]]
molecule = "CC(C)(C)OC(=O)N[C@@H](Cc1ccccc1)C(=O)N1CCCC[C@H]1C(=O)N[C@H](C=O)CCCNC(=N)N"
system_under_test = "Serine protease 1 (Bos taurus, UniProt P00760)"
observation_type = "IC50"
measured_value = "720 nM"

[[record]]
molecule = "COc1cccc(CCC(=O)N2CCN(C(=O)N3C(=O)[C@H](CC4CCNCC4)C3C(=O)O)CC2)c1 (single isomer, unassigned)"
system_under_test = "Serine protease 1 (Bos taurus, UniProt P00760)"
observation_type = "IC50"
measured_value = "810 nM"

[[record]]
molecule = "NCCCCC[C@H](NC(=O)[C@@H]1CCCN1C(=O)[C@H](N)Cc1ccccc1)C(=O)c1nccs1"
system_under_test = "Serine protease 1 (Bos taurus, UniProt P00760)"
observation_type = "IC50"
measured_value = "16000 nM"


Sample CCCCCCC(NC(=O)c1ccccc1)C(C)(C)C(=O)N[C@@H](Cc1ccccc1)C(=O)OCC (some centres not stated) — what was its IC50?
560000 nM

Sample `N=C(N)NCCC[C@H](NC(=O)[C@@H]1CCN1C(=O)[C@H](N)Cc1ccccc1)C(=O)c1nccs1` — what was its IC50?
9 nM

Sample `CC(C)(C)OC(=O)N[C@@](C)(C(=O)N1CC[C@H]1C(=O)N[C@H](C=O)CCCN=C(N)N)c1ccccc1` — what was its IC50?
15 nM

Sample CC(=O)N[C@H]1CCC[C@H]2CC[C@@H](C(=O)N[C@H]3CCCN(C(=N)N)C3O)N2C1=O (some centres not stated) — what was its IC50?
24000 nM

Sample `CC(=O)NN(Cc1ccccc1)C(=O)[C@@H]1CCCC[C@H]1C(=O)N[C@@H](CCCN=C(N)N)C(=O)C(=O)NCCc1ccccc1` — what was its IC50?
108 nM

Sample `CC(C)(C)OC(=O)NN(Cc1ccccc1)C(=O)[C@@H]1CCCC[C@H]1C(=O)N[C@H](C=O)CCCN=C(N)N` — what was its IC50?
> 2500 nM

Sample `NCCCC[C@H](NC(=O)[C@@H]1CCCN1C(=O)[C@H](N)Cc1ccccc1)C(=O)c1nccs1` — what was its IC50?
1200 nM

Sample CC(C)(C(=O)OC(=O)C(C)(C)C(CCc1ccccc1)NC(=O)c1ccc(C#N)cc1)C(CCc1ccccc1)NC(=O)c1ccc(C#N)cc1 (configuration not stated) — what was its IC50?
300 nM

Sample CC(C)(C)OC(=O)N[C@@H](CC(=O)O)C(=O)N1CCCC1C(=O)N[C@@H](CCCN=C(N)N)C(=O)C(=O)NCCc1ccccc1 (some centres not stated) — what was its IC50?
0.76 nM

Sample `NCCCC[C@H](NC(=O)[C@@H]1CCCN1C(=O)CCCc1ccccc1)C(=O)c1nccs1` — what was its IC50?
2400 nM

Sample `N=C(N)NCCC[C@H](NC(=O)[C@@H]1CCCCN1C(=O)[C@H](N)Cc1ccccc1)C(=O)c1nccs1` — what was its IC50?
41000 nM

Sample `COc1ccccc1C(=O)N[C@]1(OC)C(=O)N2C(C(=O)OCc3cccc(C)c3)=C(CSc3nncn3CC(=O)O)CO[C@@H]21` — what was its IC50?
440 nM
